Overview of reported chromatographic logD across a group of compounds:
test: CHI Log D procedure; assay type: physicochemical; conditions: pH 7.4, CHI Log D
Keep the answer to the number alone.

Below, each entry is followed by its recorded chromatographic logD result.
compound	chromatographic logD
CC(=O)N1CCC[C@]12CC=CCCCC1(CCCC=CCCCCCC[C@@](C)(C(=O)N[C@@H](Cc3ccccc3)C(=O)N[C@@H](Cc3csc4ccccc34)C(=O)N[C@@H](CCC(N)=O)C(N)=O)NC(=O)[C@H](CC(N)=O)NC(=O)[C@H](Cc3ccccc3)NC(=O)[C@H](C)NC(=O)[C@H](C)NC(=O)[C@H](CC(=O)O)NC(=O)[C@H](Cc3nn[nH]n3)NC1=O)NC(=O)[C@H](C)NC(=O)[C@H](CC(=O)O)NC2=O (stereo partly shown)	2.05
CC(=O)N1CCC[C@]12CC=CCCCC1(CCCC=CCCCOC(=O)N3CC[C@@](C(=O)N[C@@H](Cc4ccsc4)C(=O)N[C@@H](Cc4csc5ccccc45)C(N)=O)(C3)NC(=O)[C@H](CC(N)=O)NC(=O)[C@H](Cc3ccccc3)NC(=O)[C@H](C)NC(=O)[C@H](C)NC(=O)[C@H](CC(N)=O)NC(=O)[C@H](CC(=O)O)NC1=O)NC(=O)[C@H](CC(C)(C)C)NC(=O)[C@H](CC(=O)O)NC2=O (stereo partly shown)	2.58
CC(=O)N1CCC[C@]12CC=CCCCC1(CCCC=CCCCCCC[C@@](C)(C(=O)N[C@@H](Cc3ccccc3F)C(=O)N[C@@H](Cc3csc4ccccc34)C(=O)N[C@@H](CCC(N)=O)C(N)=O)NC(=O)[C@H](CC(N)=O)NC(=O)[C@H](Cc3ccccc3)NC(=O)[C@H](C)NC(=O)[C@H](C)NC(=O)[C@H](CCC(=O)O)NC(=O)[C@H](CC(=O)O)NC1=O)NC(=O)[C@H](C)NC(=O)[C@H](CC(=O)O)NC2=O (stereo partly shown)	2.05
CC(=O)N1CCC[C@]12CC=CCCCC1(CCCC=CCCCOC(=O)N3CC[C@@](C(=O)N[C@@H](Cc4ccsc4)C(=O)N[C@@H](Cc4csc5ccccc45)C(=O)N[C@@H](CCC(N)=O)C(=O)N[C@@H](CCCCNC(=O)C45CC6CC(CC(C6)C4)C5)C(N)=O)(C3)NC(=O)[C@H](CC(N)=O)NC(=O)[C@H](Cc3ccccc3)NC(=O)[C@H](C)NC(=O)[C@H](C)NC(=O)[C@H](CC(=O)O)NC(=O)[C@H](CC(=O)O)NC1=O)NC(=O)[C@H](CC(C)(C)C)NC(=O)[C@H](CC(=O)O)NC2=O (stereo partly shown)	2.55
CC(=O)N1CCC[C@]12CC=CCCCC1(CCCC=CCCCOC(=O)N3CC[C@@](C(=O)N[C@@H](Cc4ccccc4Cl)C(=O)N[C@@H](Cc4csc5ccccc45)C(=O)N[C@@H](C(N)=O)[C@H](C)O)(C3)NC(=O)[C@H](CC(C)C)NC(=O)[C@H](Cc3ccccc3)NC(=O)[C@H](C)NC(=O)[C@H](C)NC(=O)[C@H](CC(=O)O)NC(=O)[C@H](CC(=O)O)NC1=O)NC(=O)[C@H](CC(C)(C)C)NC(=O)[C@H](CC(=O)O)NC2=O (stereo partly shown)	2.63
CC(=O)N1CCC[C@]12CC=CCCCC1(CCCC=CCCCCCC[C@@](C)(C(=O)N[C@@H](Cc3ccccc3)C(=O)N[C@@H](Cc3c[nH]c4ccccc34)C(=O)N[C@@H](CCC(N)=O)C(N)=O)NC(=O)[C@H](C(C)C)NC(=O)[C@H](Cc3ccccc3)NC(=O)[C@H](C)NC(=O)[C@H](C)NC(=O)[C@@H](CCC(=O)O)NC(=O)[C@H](CC(=O)O)NC1=O)NC(=O)[C@H](C)NC(=O)[C@H](CC(=O)O)NC2=O (stereo partly shown)	2.07

## Input Quick one: chromatographic logD for CC(=O)N1CCC[C@]12CC=CCCCC1(CCCC=CCCCCCC[C@@](C)(C(=O)N[C@@H](Cc3ccccc3)C(=O)N[C@@H](Cc3csc4ccccc34)C(=O)N[C@@H](CCC(N)=O)C(N)=O)NC(=O)[C@H](CCC(N)=O)NC(=O)[C@H](Cc3ccccc3)NC(=O)[C@H](C)NC(=O)[C@H](C)NC(=O)[C@H](CCC(=O)O)NC(=O)[C@H](CC(=O)O)NC1=O)NC(=O)[C@H]([C@@H](C)O)NC(=O)[C@H](CC(=O)O)NC2=O (stereo partly shown) ?
## Output 2

## Input Reported chromatographic logD, compound CC(=O)N1CCC[C@]12CC=CCCCC1(CCCC=CCCCOC(=O)N3CC[C@@](C(=O)N[C@@H](Cc4ccsc4)C(=O)N[C@@H](Cc4c[nH]c5ccc(Cl)cc45)C(=O)N[C@@H](Cc4c[nH]cn4)C(N)=O)(C3)NC(=O)[C@H](CC(N)=O)NC(=O)[C@H](Cc3ccccc3)NC(=O)[C@H](C)NC(=O)[C@H](C)NC(=O)[C@H](CC(=O)O)NC(=O)[C@H](CC(=O)O)NC1=O)NC(=O)[C@H](CC(C)(C)C)NC(=O)[C@H](CC(=O)O)NC2=O (stereo partly shown) : ____
## Output 2.05

## Input // chromatographic logD lookup, key: CC(=O)N1CCC[C@]12CC=CCCCC1(CCCC=CCCCOC(=O)N3CC[C@@](C(=O)N[C@@H](Cc4ccsc4)C(=O)N[C@@H](Cc4csc5ccccc45)C(=O)N[C@@H](Cc4c[nH]cn4)C(N)=O)(C3)NC(=O)[C@H](CC(N)=O)NC(=O)[C@H](Cc3ccccc3)NC(=O)[C@H](C)NC(=O)[C@H](C)NC(=O)[C@H](CC(C)C)NC(=O)[C@H](CC(=O)O)NC1=O)NC(=O)[C@H](CC(C)(C)C)NC(=O)[C@H](CC(=O)O)NC2=O (stereo partly shown)
## Output 2.51

## Input Quick one: chromatographic logD of CC(=O)N1CCC[C@]12CC=CCCCC1(CCCC=CCCCCCC[C@@](C)(C(=O)N[C@@H](Cc3c(F)c(F)c(F)c(F)c3F)C(=O)N[C@@H](Cc3csc4ccccc34)C(=O)N[C@@H](CCC(N)=O)C(N)=O)NC(=O)[C@H](C(C)C)NC(=O)[C@H](Cc3ccccc3)NC(=O)[C@H](C)NC(=O)[C@H](C)NC(=O)[C@H](CC(=O)O)NC(=O)[C@H](CC(=O)O)NC1=O)NC(=O)[C@H](C)NC(=O)[C@H](CC(=O)O)NC2=O (stereo partly shown) ?
## Output 2.38
